The values you see were collected from patent US12410124B2.

Test system: midbrain pp38
Experiment: Midbrain pp38 protein expression in MPTP Parkinson's disease model mouse (western-blotting)
Type: in vivo
Conditions: midbrain total protein, GAPDH internal reference, gavage 21 days after MPTP modeling
measured-metric: Expression (pp38/GAPDH)
No unit in the answer, only the number.

Example results:
molecule=CC(C)N(c1ccc(CCS(=O)(=O)/C=C/c2ccc(OC(=O)N(C)c3ccc(I)cc3)c(OCCOCc3ccccc3)c2)cc1)C(C)C obs_value=0.27
molecule="COc1ccc(CC(=O)Oc2ccc(C(N)CS(=O)(=O)/C=C/c3ccc(OC(C)(C)C)c(OC(=O)N(C)c4ccccc4)c3)cc2)cc1 (stereo not drawn) [Compound P1-3]" obs_value=0.33
molecule=CCN(CC)C(=O)Oc1ccc(/C=C/S(=O)(=O)Cc2ccc(C(C)(C)C)cc2)cc1OC(=O)N(CC)CC obs_value=0.33
molecule="CCN(C)C(=O)Oc1ccc(/C=C/S(=O)(=O)CC(c2ccc(-c3ccc(OC)c(OC)c3)cc2)[N+](=O)[O-])cc1OC(=O)N(C)CC (stereo not drawn)" obs_value=0.40
molecule=Cc1ccc(S(=O)(=O)Oc2ccc(CS(=O)(=O)/C=C/c3ccc(OS(=O)(=O)c4ccc(C)cc4)c(OC(=O)N(C)S(=O)(=O)c4ccc(C)cc4)c3)cc2)cc1 obs_value=0.27

Now for another entry.
Prompt line: // returns reported Expression (pp38/GAPDH) for input O=S(=O)(/C=C/c1ccc(O)c(O)c1)Cc1ccc(Cl)cc1 [Compound 3D, reference compound]
Response line: 1.00

* * *

System: hippocampus GFAP
Assay: Number of hippocampus astrocytes with GFAP positive expression in MPTP Parkinson's disease model mouse (immunohistochemistry)
Assay type: in vivo
Conditions: hippocampus, MPTP Parkinson's disease model mouse, immunohistochemistry
Procedure: Neurotoxins can be used to establish PD animal models. Currently, 1-methyl-4-phenyl-1,2,3,6-tetrahydropyridine (MPTP) is the sole synthetic toxin which is recognized to induce PD symptoms in human and non-human primates and in mice. Using MPTP subacute modeling method, C57BL/6J male mice were intraperitoneally injected with MPTP 30 mg/kg, once a day for 5 consecutive days. The experiment animals were divided into blank control group, MPTP model group, and compound treatment group. […]
measured-metric: Positive cell number (astrocytes with GFAP positive expression)

Prompt line: // returns reported Positive cell number (astrocytes with GFAP positive expression) for input COCCN(C)C(=O)Oc1cc(/C=C/S(=O)(=O)CCc2cccc(-c3ccc(C)o3)c2)ccc1OC(C)=O
Response line: 79 ± 2

Prompt line: // returns reported Positive cell number (astrocytes with GFAP positive expression) for input C=CCOc1ccc(C/C=C/S(=O)(=O)/C=C/c2ccc(OC(C)=O)c(OC(=O)N(CC=C)CC=C)c2)cc1
Response line: 71 ± 4

Prompt line: // returns reported Positive cell number (astrocytes with GFAP positive expression) for input CN(C)c1ccc(CC(=O)Oc2cc(/C=C/S(=O)(=O)C(Br)c3ccc(Cc4ccc(N(C)C)cc4)cc3)ccc2OC(=O)N2CCCC2C(F)(F)F)cc1 (stereo not drawn)
Response line: 67 ± 6

* * *

Target: acetylcholinesterase (AchE) (Homo sapiens, UniProt P22303)
Sequence (P22303 32-614, species assumed): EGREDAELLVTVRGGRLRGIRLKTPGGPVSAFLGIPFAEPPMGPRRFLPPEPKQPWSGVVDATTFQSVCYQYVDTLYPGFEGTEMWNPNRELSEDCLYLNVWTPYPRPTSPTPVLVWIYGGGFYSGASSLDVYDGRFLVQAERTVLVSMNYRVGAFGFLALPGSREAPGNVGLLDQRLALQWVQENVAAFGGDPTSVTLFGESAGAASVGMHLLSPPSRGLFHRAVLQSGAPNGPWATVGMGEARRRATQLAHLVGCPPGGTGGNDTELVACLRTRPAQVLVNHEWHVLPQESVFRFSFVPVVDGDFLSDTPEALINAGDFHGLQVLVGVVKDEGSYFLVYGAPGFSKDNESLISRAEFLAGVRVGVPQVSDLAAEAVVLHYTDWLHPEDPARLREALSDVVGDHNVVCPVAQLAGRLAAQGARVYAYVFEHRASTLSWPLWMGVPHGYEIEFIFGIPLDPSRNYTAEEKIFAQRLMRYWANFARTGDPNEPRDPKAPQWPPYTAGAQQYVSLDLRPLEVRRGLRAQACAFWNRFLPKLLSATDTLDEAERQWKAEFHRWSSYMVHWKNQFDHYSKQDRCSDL
Test: biochemical
Settings: acetylcholinesterase, modified Ellman method; read-out: IC50
Decide using IC50 alone. Strictly below 10 µM: Fulfilled. Equal to or above 10 µM: Not fulfilled.

The examples below pair each entry with its known result.
compound="CC(=O)Oc1ccc(/C=C/S(=O)(=O)Cc2c(F)c(F)c(F)c(F)c2F)cc1OC(=O)NC(=O)c1ccc([N+](=O)[O-])c(C)c1 [Compound D5-4]" study_system="acetylcholinesterase (AchE) (Homo sapiens, UniProt P22303)" class_assignment="Not fulfilled"
compound="CCN(CC)C(=O)Oc1ccc(/C=C/S(=O)(=O)Cc2ccc(C(F)(F)F)cc2)cc1OC(=O)N(CC)CC [Compound B1-1]" study_system="acetylcholinesterase (AchE) (Homo sapiens, UniProt P22303)" class_assignment="Not fulfilled"
compound="O=S(=O)(/C=C/c1ccc(O)c(O)c1)CCCc1ccccc1 [Compound 3C, reference compound]" study_system="acetylcholinesterase (AchE) (Homo sapiens, UniProt P22303)" class_assignment="Not fulfilled"
compound="O=C(NC(=O)C(F)(F)F)Oc1ccc(/C=C/S(=O)(=O)C(F)(F)c2ccc(Oc3ccccn3)cc2)cc1OC(=O)C(F)(F)C(F)(F)F [Compound L1-4]" study_system="acetylcholinesterase (AchE) (Homo sapiens, UniProt P22303)" class_assignment=Fulfilled
compound="CCOC(CS(=O)(=O)/C=C/c1ccc(OC(C)=O)c(OC(=O)Nc2ccc(NC)cc2)c1)C(OCC)c1ccc(OCc2ccccc2)c(O)c1 (stereo not drawn) [Compound H2-4]" study_system="acetylcholinesterase (AchE) (Homo sapiens, UniProt P22303)" class_assignment="Not fulfilled"

Could you now consider this next compound?
Prompt line: Is the reported IC50 for COc1cc(/C=C/S(=O)(=O)Cc2cc(OC)c(OC)c(OC)c2)ccc1OC(=O)N(c1ccccc1)c1ccccc1 [Compound K3-3] strictly below 10 µM?
Response line: Not fulfilled

* * *

Target: acetylcholinesterase (AchE) (Homo sapiens, UniProt P22303)
Experiment: biochemical
Details: acetylcholinesterase, modified Ellman method; read-out: IC50
Method: The modified Ellman method was used to determine the inhibitory activity on acetylcholinesterase. The principle lies in that acetylthiocholine iodide is decomposed under the action of acetylcholinesterase (AchE) to generate thiocholine. The thiocholine is quickly reacted with DTNB as the colour-developing agent to generate a yellow substance with light absorption at 405 nm. […] After incubation at room temperature for 8 min, the absorbance value was determined at 405 nm with a microplate reader. […]
IC50 reference
Answer format: numeric, µM implied, no suffix.

Example results:
compound="CC(Br)C(Br)COc1cc(/C=C/S(=O)(=O)CCc2ccc(OCC(F)(F)F)cc2)ccc1OC(=O)Nc1ccsc1 (centres unmarked) [Compound K1-3]" unit_spec=µM obs_value=22.3
compound="CCN(CC)C(=O)Oc1ccc(/C=C/S(=O)(=O)CCCc2ccccc2)cc1OC(=O)N(CC)CC [Compound C1-1]" unit_spec=µM obs_value=14.7

Prompt line: # get_value(readout= IC50, system= acetylcholinesterase (AchE) (Homo sapiens, UniProt P22303)) for CN(C)c1ccc(CC(=O)Oc2cc(/C=C/S(=O)(=O)C(Br)c3ccc(Cc4ccc(N(C)C)cc4)cc3)ccc2OC(=O)N2CCCC2C(F)(F)F)cc1 (centres unmarked) [Compound M1-5]
Response line: 31.3

Prompt line: # get_value(readout= IC50, system= acetylcholinesterase (AchE) (Homo sapiens, UniProt P22303)) for CCN(CC)C(=O)Oc1ccc(/C=C/S(=O)(=O)Cc2ccc(C(C)(C)C)cc2)cc1OC(=O)N(CC)CC [Compound G1-1]
Response line: 10.8

Prompt line: # get_value(readout= IC50, system= acetylcholinesterase (AchE) (Homo sapiens, UniProt P22303)) for CC[Si](CC)(Oc1ccc(C(Cl)S(=O)(=O)/C=C/c2ccc(OC(=O)N3CC(C)OC(C)C3)c(OC(=O)c3cccc(Cl)c3OC)c2)cc1)c1ccccc1 (centres unmarked) [Compound R1-5]
Response line: 27.5

* * *

System: hippocampus GFAP
Experiment: Number of hippocampus astrocytes with GFAP positive expression in MPTP Parkinson's disease model mouse (immunohistochemistry)
Type: in vivo
Conditions: hippocampus, MPTP Parkinson's disease model mouse, immunohistochemistry
Description: Neurotoxins can be used to establish PD animal models. Currently, 1-methyl-4-phenyl-1,2,3,6-tetrahydropyridine (MPTP) is the sole synthetic toxin which is recognized to induce PD symptoms in human and non-human primates and in mice. Using MPTP subacute modeling method, C57BL/6J male mice were intraperitoneally injected with MPTP 30 mg/kg, once a day for 5 consecutive days. The experiment animals were divided into blank control group, MPTP model group, and compound treatment group. […]
measured-metric: Positive cell number (astrocytes with GFAP positive expression)
No unit in the answer, only the number.

Example results:
compound="O=S(=O)(/C=C/c1ccc(O)c(O)c1)Cc1ccc(Cl)cc1 [Compound 3D, reference compound]" obs_value=106
compound="CC(C)(C)c1ccc(CS(=O)(=O)/C=C/c2ccc(O)c(O)c2)cc1 [Compound 3G, reference compound]" obs_value=130

Prompt line: # get_value(readout= Positive cell number (astrocytes with GFAP positive expression), system= hippocampus GFAP) for COc1ccc(CC(=O)Oc2ccc(/C(C)=C/S(=O)(=O)/C=C/c3ccc(OC(=O)N(C)C)c(O[Si](C)(C)CCl)c3)cc2)cc1 [Compound P1-7]
Response line: 49

Prompt line: # get_value(readout= Positive cell number (astrocytes with GFAP positive expression), system= hippocampus GFAP) for CCN(CC)C(=O)Oc1ccc(/C=C/S(=O)(=O)Cc2ccc(C(F)(F)F)cc2)cc1OC(=O)N(CC)CC [Compound B1-1]
Response line: 64

Prompt line: # get_value(readout= Positive cell number (astrocytes with GFAP positive expression), system= hippocampus GFAP) for Cc1ccc(N2CCN(C(=O)Oc3ccc(/C=C/S(=O)(=O)CCCC(c4ccc(OC(=O)CN(C)C)cc4)N(C)C)cc3OC(=O)N(C)c3ccccc3)CC2)cc1 (stereo not drawn) [Compound P1-1]
Response line: 72

Prompt line: # get_value(readout= Positive cell number (astrocytes with GFAP positive expression), system= hippocampus GFAP) for CC[Si](CC)(Oc1ccc(C(Cl)S(=O)(=O)/C=C/c2ccc(OC(=O)N3CC(C)OC(C)C3)c(OC(=O)c3cccc(Cl)c3OC)c2)cc1)c1ccccc1 (stereo not drawn) [Compound R1-5]
Response line: 80
